The origin of these recorded values is the RNAGym collection of RNA variant scans (doi:10.7554/elife.80360).

B1: CPEB3 Ribozyme (parent)
chain: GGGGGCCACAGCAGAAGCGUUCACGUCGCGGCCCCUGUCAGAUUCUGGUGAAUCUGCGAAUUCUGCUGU

Variants of: B1
test: self-cleavage, relative activity (ratio to wild type); higher = more cleavage; co-transcriptional
Response key: T means self-cleavage >= 0.1; F means self-cleavage < 0.1.

- mutation.name: "U62A U67A"
  answer.label: "T"
- mutation.name: "G3C G19C"
  answer.label: "F"

Form field: self-cleavage at least 0.1? Entry: G3A G19A T

Form field: self-cleavage at least 0.1? Entry: A8C C39A T

Form field: self-cleavage at least 0.1? Entry: G2A G37C F

Form field: self-cleavage at least 0.1? Entry: U64A G68U T

Form field: self-cleavage at least 0.1? Entry: G58A U61C T
